Data provenance is PubChem BioAssay (NCI).

Test system: M14 melanoma
protocol-details: NCI tumour cell line growth inhibition, 48 h
This listing pairs molecules with measured GI50.
endpoint-label: GI50

> print(dat)
                                    molecule  target.entity  reported.value
 1  COc1ccc(C2=C(c3ccc(OC)c(OC)c3)C(=O)N3CCCC3C2)cc1 (stereo not given)   M14 melanoma        35900 nM
 2  Cc1cn2c(/C=C3/C(=O)Nc4ccc(O)cc43)c(C)nc2s1   M14 melanoma         2290 nM
 3  COc1ccc(/C=C(\C(=O)NCc2cccnc2)S(=O)(=O)c2ccccc2)cc1OC   M14 melanoma         2480 nM
 4  Cc1ccc(C(=O)NC2CCC2)cc1-c1ccc(C(=O)NCC2CC2)cc1   M14 melanoma      > 25000 nM
 5  O=C1NOC(c2ccc(O)cc2)(c2ccc(O)cc2)c2ccccc21   M14 melanoma     > 100000 nM
 6  CC[C@H](CO)Nc1nc(NCc2ccccc2)c2ncn(C(C)C)c2n1   M14 melanoma        31600 nM
 7  Cc1ccc(-c2nc3nc(-c4ccccc4)nc(N4CCNCC4)c3o2)cc1   M14 melanoma         1770 nM
 8  Cn1cc(-c2csc(-c3cn(CCCN4CCCCC4)c4ccccc34)n2)c2cccnc21   M14 melanoma         1820 nM
 9  COc1cnc2c(c1)C(=O)c1c-2n(CCCNC2=NCCS2)c(=O)c2cc(Cl)ccc12   M14 melanoma         82.9 nM
10  COc1ccccc1CNCCCN1C(=O)c2ccc3c4c(ccc(c24)C1=O)C(=O)N(CCCN)C3=O   M14 melanoma          833 nM
11  COc1ccc(N(/C=C/C(=O)C(F)(F)F)CC(=O)c2ccc(F)cc2)cc1   M14 melanoma        20600 nM
12           Nc1ccccc1C#C/C=C\C#Cc1cccc(O)c1   M14 melanoma         1300 nM
13  O=C(Nc1ccc(Oc2cccc(F)c2)c(Cl)c1)c1cnccn1   M14 melanoma          780 nM
14  COc1ccc(C(=O)/C=C/c2cccc(Nc3ccnc4cc(Cl)ccc34)c2)cc1   M14 melanoma         1600 nM
15  c1ccc2[nH]c(-c3cc(-c4ccc5c(c4)OCO5)n[nH]3)nc2c1   M14 melanoma         2190 nM
